Test: Intrinsic clearance in rat assessed as half-life at 1 uM
Format: ADME
recorded.metric: half-life at 1 µM (min)
API: value field is a number in min; no unit string.

Ask: For the molecule shown here, COc1cc(-c2ncc(COc3cccc([C@@H](CC(=O)O)C4CC4)c3)nc2CC(C)C)c(F)cn1 , give the reported half-life at 1 µM.
Reply: 48

###

Biological target: UniProt Q76JU9
Sequence (Q76JU9 whole entry): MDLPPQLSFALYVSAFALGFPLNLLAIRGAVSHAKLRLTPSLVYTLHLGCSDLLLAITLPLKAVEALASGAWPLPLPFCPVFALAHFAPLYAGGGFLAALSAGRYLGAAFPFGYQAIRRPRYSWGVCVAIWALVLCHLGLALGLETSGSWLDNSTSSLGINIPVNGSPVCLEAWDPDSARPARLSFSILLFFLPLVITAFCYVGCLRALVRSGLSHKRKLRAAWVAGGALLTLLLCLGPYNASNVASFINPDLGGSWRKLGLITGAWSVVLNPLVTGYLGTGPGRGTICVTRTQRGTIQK
Test: Agonist activity at mouse GPR40 assessed as increase in intracellular calcium level
recorded.metric: pEC50
Please report pEC50 as the negative decimal logarithm of the molar concentration, giving only the number.

Ask: Value wanted: pEC50 (UniProt Q76JU9) of entry COc1cc(-c2ncc(COc3cccc([C@@H](CC(=O)O)C4CC4)c3)nc2CC(C)C)c(F)cn1
Reply: 7.42

Sourced from ChEMBL document CHEMBL4673209
